Just for reference, ChEMBL document CHEMBL1140833 is where these values come from.

# study-target: Voltage-gated inwardly rectifying potassium channel KCNH2 (Homo sapiens, UniProt Q12809)
# Sequence (Q12809 whole entry): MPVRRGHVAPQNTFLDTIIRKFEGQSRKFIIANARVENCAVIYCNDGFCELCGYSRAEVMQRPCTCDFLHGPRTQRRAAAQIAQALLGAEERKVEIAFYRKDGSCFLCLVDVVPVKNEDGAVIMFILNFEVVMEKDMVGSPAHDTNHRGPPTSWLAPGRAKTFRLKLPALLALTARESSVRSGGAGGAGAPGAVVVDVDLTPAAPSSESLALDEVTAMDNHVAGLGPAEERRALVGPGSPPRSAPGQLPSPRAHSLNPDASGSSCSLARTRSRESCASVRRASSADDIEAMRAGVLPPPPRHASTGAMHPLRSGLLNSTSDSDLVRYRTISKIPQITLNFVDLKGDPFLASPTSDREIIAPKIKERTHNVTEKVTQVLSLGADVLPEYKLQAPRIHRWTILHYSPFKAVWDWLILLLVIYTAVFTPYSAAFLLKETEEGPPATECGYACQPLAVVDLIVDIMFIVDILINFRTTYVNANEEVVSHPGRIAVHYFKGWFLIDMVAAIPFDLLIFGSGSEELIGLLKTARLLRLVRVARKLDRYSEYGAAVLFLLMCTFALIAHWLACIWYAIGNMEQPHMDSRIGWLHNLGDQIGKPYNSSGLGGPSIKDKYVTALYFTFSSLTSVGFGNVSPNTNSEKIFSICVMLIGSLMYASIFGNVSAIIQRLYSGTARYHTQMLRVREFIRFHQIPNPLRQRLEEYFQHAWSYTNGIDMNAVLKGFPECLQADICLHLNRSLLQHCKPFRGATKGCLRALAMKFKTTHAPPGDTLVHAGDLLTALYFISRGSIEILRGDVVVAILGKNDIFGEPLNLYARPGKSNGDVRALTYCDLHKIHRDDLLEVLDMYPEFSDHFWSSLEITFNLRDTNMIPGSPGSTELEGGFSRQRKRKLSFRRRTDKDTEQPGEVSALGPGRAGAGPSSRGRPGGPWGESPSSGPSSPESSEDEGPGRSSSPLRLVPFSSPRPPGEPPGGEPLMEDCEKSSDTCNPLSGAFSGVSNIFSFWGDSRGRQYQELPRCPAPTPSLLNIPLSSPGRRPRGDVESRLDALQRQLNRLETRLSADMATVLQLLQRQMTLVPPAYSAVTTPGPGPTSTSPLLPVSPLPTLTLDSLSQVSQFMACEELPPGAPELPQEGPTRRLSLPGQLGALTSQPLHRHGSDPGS
# test-summary: Displacement of [[…]]MK499 from human ERG expressed in HEK cells
pIC50: −log10 of the molar value.
Catalogue of pIC50 values
assay-metric: pIC50

>  <compound>
CC(C)[C@]1(C(=O)NCc2cc(C(F)(F)F)cc(C(F)(F)F)c2)CC[C@@H](N2CCC(c3cccc(C(=O)O)c3)CC2)C1 (single isomer, unassigned)

>  <assay-metric>
pIC50

>  <result-number>
6.22

$$$$
>  <compound>
CC(C)(O)[C@]1(C(=O)NCc2cc(C(F)(F)F)cc(C(F)(F)F)c2)CC[C@@H](N2CCC(c3ccc(F)cc3)CC2)C1

>  <assay-metric>
pIC50

>  <result-number>
7.27

$$$$
>  <compound>
CC(C)[C@]1(C(=O)NCc2cc(C(F)(F)F)cc(C(F)(F)F)c2)CC[C@@H](N2CCC(c3cccc(C(=O)O)c3)CC2)C1

>  <assay-metric>
pIC50

>  <result-number>
5.56

$$$$
>  <compound>
COc1cccc(C2CCN([C@@H]3CC[C@@](C(=O)NCc4cc(C(F)(F)F)cc(C(F)(F)F)c4)(C(C)C)C3)CC2)c1 (single isomer, unassigned)

>  <assay-metric>
pIC50

>  <result-number>
6.66

$$$$
>  <compound>
CC(C)[C@]1(C(=O)NCc2cc(C(F)(F)F)cc(C(F)(F)F)c2)CC[C@@H](N2CCC(c3ccncn3)CC2)C1 (single isomer, unassigned)

>  <assay-metric>
pIC50

>  <result-number>
6.89

$$$$
>  <compound>
CC(C)[C@]1(C(=O)NCc2cc(C(F)(F)F)cc(C(F)(F)F)c2)CC[C@@H](N2CCC(c3cccc(O)c3)CC2)C1 (single isomer, unassigned)

>  <assay-metric>
pIC50

>  <result-number>
7.17

$$$$
>  <compound>
CC(C)[C@]1(C(=O)NCc2cc(C(F)(F)F)cc(C(F)(F)F)c2)CC[C@@H](N2CCC(c3ccc(F)cc3)CC2)C1

>  <assay-metric>
pIC50

>  <result-number>
7.80

$$$$
